Target: T1, CRH (NT-Biotin) (human and mouse, not fully specified; biotin at the N-terminus)
T1 construct: also called Biotin-CRH; N-terminally biotinylated corticotropin-releasing hormone
T1 peptide: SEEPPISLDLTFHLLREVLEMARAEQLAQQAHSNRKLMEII
Test: ELISA, N-terminally biotinylated CRH on streptavidin-coated plate
Attribute: EC50
State the answer as a number, implicitly in nM.

Past entries and their recorded results:
>  <binder>
PR302309 (antibody, human IgG1, kappa, V domains shown, Mouse variable domains, expressed recombinantly with human IgG1 wildtype Fc; also called Series 7 mAb) VH: QIQLVQSGPELKKPGETVKISCKASGYTFTNYGMNWVKQAPGKVLKWMGWINTYTGEPIYTDDFKGRFAFSLETSASTAYLQINNLKNEDTATYFCSRSTMITTGGVFAYWGQGTLVTVSA VL: DVLMAQTPLSLPVSLGDQASISCRSSQTIVHSDGNTYLEWYLQKPGQSPKLLIYKVSNRFSGVPDRFSGSGSGTDFTLKISRVEAEDLGVYYCFQGSHVPWTFGGGTKLEIKR

>  <EC50 / nM>
0.028

$$$$
>  <binder>
PR302339 (antibody, human IgG1, kappa, V domains shown, Mouse variable domains, expressed recombinantly with human IgG1 wildtype Fc; also called Series 9 mAb) VH: EVKLVESGGGLVKPGGSLKLSCAASGFTFSSYALSWVRQTPEKRLEWVASIRSGGTTYYPDSVKGRFTISRDNARNILYLQMSSLRSEDTAIYYCTRGIDWGQGTLVTVSA VL: NIVMTQTPKFLLVSAGDRVTITCKASQSVNNDVAWYQQKPGQSPKLLIYYASNRYTGVPDRFTGSGYGTDFTFTISTVQAEDLAVYFCQQDYSSWTFGGGTKLEIKR

>  <EC50 / nM>
0.018

$$$$

Switching to the query record.
**Q:** Dear colleague, please send me the reported EC50 for PR302315 (antibody, human IgG1, kappa, V domains shown, Mouse variable domains, expressed recombinantly with human IgG1 wildtype Fc; also called Series 8 mAb) VH: DVQLVESGGGLMQPGGSRKLSCVASGFTFSSFGMHWVRQAPEKGLEWVAYISSGSSIIYYADTVKGRFTISRDNPKNILFLQMTSLRSEDTAMYYCARDITTATFAYWGQGTLVTVSA VL: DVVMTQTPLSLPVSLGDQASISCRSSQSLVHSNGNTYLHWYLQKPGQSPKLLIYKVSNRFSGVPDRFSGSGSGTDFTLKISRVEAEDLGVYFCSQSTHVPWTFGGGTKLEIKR when you can.
**A:** 0.014
